These measurements were taken from patent US20070254831A1.

Target: T1, soluble human FcRn (human, UniProt P55899 24-297; P61769 21-119, biotinylated (Sulfo-NHS-LC-Biotin) in the ELISA; amine-coupled to CM5 chip in SPR)
T1 construct: also called shFcRn; biotinylated shFcRn
T1 sequence (P55899 24-297 limits assumed, chain 1 of 2): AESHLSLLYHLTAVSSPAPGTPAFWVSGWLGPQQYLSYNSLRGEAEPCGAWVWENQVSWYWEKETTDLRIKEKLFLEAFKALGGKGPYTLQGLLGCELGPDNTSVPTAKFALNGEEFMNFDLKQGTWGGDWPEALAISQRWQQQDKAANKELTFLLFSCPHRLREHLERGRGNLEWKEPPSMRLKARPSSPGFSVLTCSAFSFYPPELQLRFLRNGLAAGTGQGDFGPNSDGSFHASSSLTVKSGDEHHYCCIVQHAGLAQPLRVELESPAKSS
T1 sequence (P61769 21-119 limits assumed, chain 2 of 2): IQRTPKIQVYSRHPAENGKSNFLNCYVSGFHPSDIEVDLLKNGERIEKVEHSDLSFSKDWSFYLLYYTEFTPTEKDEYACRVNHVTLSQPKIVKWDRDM
Test: ELISA, competitor human IgG
Measured IC50 of individual entries
Write down the numeric answer in µM and omit the unit.

Some binders with known IC50 results, for comparison:
{"columns": ["Binder", "Unit Name", "Assay Result"],
 "data": [
  ["QRFXTGHFGGLYPCNGP (Pen (L-penicillamine) at 4; disulfide; C-terminal amide) [Peptide No. 32]", "µM", 2],
  ["QRFXTGHFGXYPCNGP (Pen at 4; X at 10 = D,L-Friedinger's lactam (dipeptide mimetic for Gly-Leu); disulfide; C-terminal amide) [Peptide No. 194]", "µM", 4.9]
]}

Field: next binder
Would you kindly share the measured IC50 for QRFXTGHFGXYPCNGP (Pen at 4; X at 10 = L,L-Friedinger's lactam (dipeptide mimetic for Gly-Leu); disulfide; C-terminal amide) [Peptide No. 216] ?
19
